The origin of these recorded values is patent US20100168102A9.

- SYSTEM NAME: human ROCKα/ROCKII mix (Homo sapiens, UniProt O75116)
- Construct: purchased Upstate Biotechnology 14-451
- Sequence (O75116 11-552 limits assumed): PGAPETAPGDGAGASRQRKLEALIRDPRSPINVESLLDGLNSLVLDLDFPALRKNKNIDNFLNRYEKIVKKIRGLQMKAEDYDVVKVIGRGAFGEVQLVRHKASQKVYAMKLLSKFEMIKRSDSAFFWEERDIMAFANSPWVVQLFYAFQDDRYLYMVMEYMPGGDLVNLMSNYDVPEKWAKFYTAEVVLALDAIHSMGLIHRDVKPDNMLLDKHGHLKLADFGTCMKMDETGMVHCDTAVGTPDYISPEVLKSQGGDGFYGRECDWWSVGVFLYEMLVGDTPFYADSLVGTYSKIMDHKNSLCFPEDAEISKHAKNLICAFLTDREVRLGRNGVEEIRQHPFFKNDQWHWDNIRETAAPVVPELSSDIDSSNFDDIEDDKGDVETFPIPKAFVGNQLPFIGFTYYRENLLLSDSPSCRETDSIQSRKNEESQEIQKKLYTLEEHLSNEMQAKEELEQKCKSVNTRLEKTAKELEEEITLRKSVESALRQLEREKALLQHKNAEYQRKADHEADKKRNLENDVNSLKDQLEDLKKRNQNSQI
- PROCEDURE TEXT: Biochemical assay for ROCK (fluorescence polarization, ROCK IMAP Kit)
- TEST PARAMETERS: compounds of Formula XIV, Table 3
OUTCOME MEASURE: IC50

> print(dat)
                                    compound  outcome.measure         reading
 1  CC(CNC(=O)CC(N)c1ccc(C(=O)Nc2ccncc2)cc1)c1ccc(Cl)cc1 (centres unmarked) [Compound 301]             IC50  0.05 to 0.5 µM
 2  CCOc1ccccc1CCNC(=O)CC(N)c1ccc(C(=O)Nc2ccncc2)cc1 (centres unmarked) [Compound 288]             IC50  0.05 to 0.5 µM
 3  COCC(C)NC(=O)CC(N)c1ccc(C(=O)Nc2ccncc2)cc1 (centres unmarked) [Compound 181]             IC50  0.05 to 0.5 µM
 4  NC(CC(=O)NCc1ccccc1Cl)c1ccc(C(=O)Nc2ccncc2)cc1 (centres unmarked) [Compound 246]             IC50  0.05 to 0.5 µM
 5  NC(CC(=O)NCc1ccc(OC(F)(F)F)cc1)c1ccc(C(=O)Nc2ccncc2)cc1 (centres unmarked) [Compound 271]             IC50  0.05 to 0.5 µM
 6  NC(CC(=O)NC1CCCc2ccccc21)c1ccc(C(=O)Nc2ccncc2)cc1 (centres unmarked) [Compound 223]             IC50  0.05 to 0.5 µM
 7  NC(CC(=O)NCc1cc(Cl)cc(Cl)c1)c1ccc(C(=O)Nc2ccncc2)cc1 (centres unmarked) [Compound 250]             IC50  0.05 to 0.5 µM
 8  CCOc1ccc(CCNC(=O)CC(N)c2ccc(C(=O)Nc3ccncc3)cc2)cc1 (centres unmarked) [Compound 290]             IC50  0.05 to 0.5 µM
 9  CC(NC(=O)CC(N)c1ccc(C(=O)Nc2ccncc2)cc1)c1cccc2ccccc12 (centres unmarked) [Compound 230]             IC50  0.05 to 0.5 µM
10  NC(CC(=O)NCc1ccc(F)c(C(F)(F)F)c1)c1ccc(C(=O)Nc2ccncc2)cc1 (centres unmarked) [Compound 266]             IC50  0.05 to 0.5 µM
11  COc1ccc(NC(=O)CC(N)c2ccc(C(=O)Nc3ccncc3)cc2)cc1 (centres unmarked) [Compound 319]             IC50  0.05 to 0.5 µM

----------
- SYSTEM NAME: human ROCKα/ROCKII mix (Homo sapiens)
- Construct: purchased Upstate Biotechnology 14-451
- PROCEDURE TEXT: Biochemical assay for ROCK (fluorescence polarization, ROCK IMAP Kit)
- TEST PARAMETERS: compounds of Formula XIV, Table 3
This section presents compounds with their documented IC50 values.
OUTCOME MEASURE: IC50

> print(dat)
                                   compound  outcome.measure         reading
1  CC(C)(Cc1ccc(F)cc1)NC(=O)CC(N)c1ccc(C(=O)Nc2ccncc2)cc1 (stereo not shown)             IC50  0.05 to 0.5 µM
2  COc1ccc(OC)c(CNC(=O)CC(N)c2ccc(C(=O)Nc3ccncc3)cc2)c1 (stereo not shown)             IC50  0.05 to 0.5 µM
3  Cc1cccc(Cl)c1CNC(=O)CC(N)c1ccc(C(=O)Nc2ccncc2)cc1 (stereo not shown)             IC50  0.05 to 0.5 µM
4  Cc1ccccc1CNC(=O)CC(N)c1ccc(C(=O)Nc2ccncc2)cc1 (stereo not shown)             IC50  0.05 to 0.5 µM

----------
This section presents compounds with their documented IC50 values.
- SYSTEM NAME: human ROCKα/ROCKII mix (Homo sapiens, UniProt O75116)
- Construct: purchased Upstate Biotechnology 14-451
- PROCEDURE TEXT: Biochemical assay for ROCK (fluorescence polarization, ROCK IMAP Kit)
OUTCOME MEASURE: IC50

> print(dat)
                                   compound      reading
1  NC(c1ccc(C(=O)Nc2ccncc2)cc1)C1CCCN1C(=O)C1(c2ccc(F)cc2)CCCC1 (stereo not shown)  0.5 to 5 µM
2  CCOC(=O)CCNC(=O)NCC(N)c1ccc(C(=O)Nc2ccncc2)cc1 (stereo not shown)  0.5 to 5 µM
3  NC(CNC(=O)NC1CCCCC1)c1ccc(C(=O)Nc2ccncc2)cc1 (stereo not shown)  0.5 to 5 µM
4  CN(CC(N)c1ccc(C(=O)Nc2ccncc2)cc1)C(=O)C1CCCc2sccc21 (stereo not shown)  0.5 to 5 µM

----------
- SYSTEM NAME: human ROCKα/ROCKII mix (Homo sapiens, UniProt O75116)
- Construct: purchased Upstate Biotechnology 14-451
- PROCEDURE TEXT: Biochemical assay for ROCK (fluorescence polarization, ROCK IMAP Kit)
This section presents compounds with their documented IC50 values.
OUTCOME MEASURE: IC50

> print(dat)
                                   compound         reading
1  Cc1ccccc1NC(=O)NCC(N)c1ccc(C(=O)Nc2ccncc2)cc1 (stereo not drawn) [Compound 25]  0.05 to 0.5 µM
2  CC(C)(C(=O)N1CCCC1C(N)c1ccc(C(=O)Nc2ccncc2)cc1)c1ccc(Cl)cc1 (stereo not drawn) [Compound 563]     0.5 to 5 µM
3  NC(c1ccc(C(=O)Nc2ccncc2)cc1)C1CCCN1C(=O)C1(c2cccs2)CC1 (stereo not drawn) [Compound 549]     0.5 to 5 µM
4  CN(CC(N)c1ccc(C(=O)Nc2ccncc2)cc1)C(=O)Cc1ccc(Cl)c(Cl)c1 (stereo not drawn) [Compound 491]     0.5 to 5 µM
5  NC(c1ccc(C(=O)Nc2ccncc2)cc1)C1CCCN1C(=O)Cc1ccc(F)c(Cl)c1 (stereo not drawn) [Compound 603]  0.05 to 0.5 µM
6  NC(c1ccc(C(=O)Nc2ccncc2)cc1)C1CCCN1C(=O)C1CCCc2ccccc21 (stereo not drawn) [Compound 613]     0.5 to 5 µM

----------
- SYSTEM NAME: PKC epsilon (Homo sapiens, UniProt Q02156)
- Construct: purchased Invitrogen P2282
- Sequence (Q02156 whole entry): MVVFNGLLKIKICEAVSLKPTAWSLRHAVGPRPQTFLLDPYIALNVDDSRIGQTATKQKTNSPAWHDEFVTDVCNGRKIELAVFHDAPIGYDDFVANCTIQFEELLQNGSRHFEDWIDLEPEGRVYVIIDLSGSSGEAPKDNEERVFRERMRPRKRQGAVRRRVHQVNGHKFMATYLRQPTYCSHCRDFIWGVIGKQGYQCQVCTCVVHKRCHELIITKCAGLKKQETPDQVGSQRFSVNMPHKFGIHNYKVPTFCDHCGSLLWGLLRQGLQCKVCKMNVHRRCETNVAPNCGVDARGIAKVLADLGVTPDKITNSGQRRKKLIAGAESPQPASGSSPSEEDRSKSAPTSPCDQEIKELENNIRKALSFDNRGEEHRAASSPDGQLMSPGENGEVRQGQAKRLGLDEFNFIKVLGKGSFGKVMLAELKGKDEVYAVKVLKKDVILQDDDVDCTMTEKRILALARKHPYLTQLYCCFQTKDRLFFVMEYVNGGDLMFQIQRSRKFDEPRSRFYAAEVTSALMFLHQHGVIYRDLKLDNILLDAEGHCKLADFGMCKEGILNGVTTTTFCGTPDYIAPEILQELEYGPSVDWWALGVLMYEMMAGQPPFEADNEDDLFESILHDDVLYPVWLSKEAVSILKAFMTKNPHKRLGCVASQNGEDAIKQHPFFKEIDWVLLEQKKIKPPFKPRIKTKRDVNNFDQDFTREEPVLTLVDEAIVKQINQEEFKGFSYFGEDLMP
- PROCEDURE TEXT: Biochemical assay for PKC epsilon (fluorescence polarization, Protein Kinase C Assay Kit, Red)
- TEST PARAMETERS: Table 2, compounds of Formula XIII; read-out: IC50 μM PKCε
This section presents compounds with their documented IC50 values.
OUTCOME MEASURE: IC50

> print(dat)
                                    compound         reading
 1  CC(C)(C(=O)NCC(N)c1ccc(C(=O)Nc2ccncc2)cc1)c1ccsc1 (centres unmarked)  0.05 to 0.5 µM
 2  NC(CNC(=O)C1CCc2ccccc2C1)c1ccc(C(=O)Nc2ccncc2)cc1 (centres unmarked)     0.5 to 5 µM
 3  NC(CNC(=O)c1cc2ccccc2[nH]1)c1ccc(C(=O)Nc2ccncc2)cc1 (centres unmarked)      5 to 50 µM
 4  NC(CNC(=O)Cc1ccc2c(c1)OCO2)c1ccc(C(=O)Nc2ccncc2)cc1 (centres unmarked)      5 to 50 µM
 5  NC(CNC(=O)C1(c2ccc(F)cc2Cl)CCCC1)c1ccc(C(=O)Nc2ccncc2)cc1 (centres unmarked)       < 0.05 µM
 6  NC(CNC(=O)C1CCCCc2ccc(F)cc21)c1ccc(C(=O)Nc2ccncc2)cc1 (centres unmarked)       < 0.05 µM
 7  NC(CNC(=O)c1cnccn1)c1ccc(C(=O)Nc2ccncc2)cc1 (centres unmarked)      5 to 50 µM
 8  CCNS(=O)(=O)c1cccc(C(=O)NCC(N)c2ccc(C(=O)Nc3ccncc3)cc2)c1 (centres unmarked)     0.5 to 5 µM
 9  NC(CNC(=O)Cc1cccs1)c1ccc(C(=O)Nc2ccncc2)cc1 (centres unmarked)     0.5 to 5 µM
10  CC(C)(C(=O)NCC(N)c1ccc(C(=O)Nc2ccncc2)cc1)c1ccc(Cl)cc1 (centres unmarked)       < 0.05 µM
11  NC(CNC(=O)C1(c2ccc(Cl)c(Cl)c2)CC1)c1ccc(C(=O)Nc2ccncc2)cc1 (centres unmarked)  0.05 to 0.5 µM
12  NC(CNC(=O)Cc1cc(F)ccc1F)c1ccc(C(=O)Nc2ccncc2)cc1 (centres unmarked)     0.5 to 5 µM
13  CCSCC(=O)NCC(N)c1ccc(C(=O)Nc2ccncc2)cc1 (centres unmarked)     0.5 to 5 µM
14  NC(CNC(=O)COc1ccccc1)c1ccc(C(=O)Nc2ccncc2)cc1 (centres unmarked)  0.05 to 0.5 µM
15  COc1ccccc1C(=O)NCC(N)c1ccc(C(=O)Nc2ccncc2)cc1 (centres unmarked)     0.5 to 5 µM
16  NC(CNC(=O)c1csc(-c2ccccc2)n1)c1ccc(C(=O)Nc2ccncc2)cc1 (centres unmarked)      5 to 50 µM
17  COc1ccc(C(=O)NCC(N)c2ccc(C(=O)Nc3ccncc3)cc2)cc1 (centres unmarked)      5 to 50 µM
